These measurements were taken from ChEMBL document CHEMBL1137371.

Exercise: for every item that follows, state its recorded pIC50.
Target protein (sequence): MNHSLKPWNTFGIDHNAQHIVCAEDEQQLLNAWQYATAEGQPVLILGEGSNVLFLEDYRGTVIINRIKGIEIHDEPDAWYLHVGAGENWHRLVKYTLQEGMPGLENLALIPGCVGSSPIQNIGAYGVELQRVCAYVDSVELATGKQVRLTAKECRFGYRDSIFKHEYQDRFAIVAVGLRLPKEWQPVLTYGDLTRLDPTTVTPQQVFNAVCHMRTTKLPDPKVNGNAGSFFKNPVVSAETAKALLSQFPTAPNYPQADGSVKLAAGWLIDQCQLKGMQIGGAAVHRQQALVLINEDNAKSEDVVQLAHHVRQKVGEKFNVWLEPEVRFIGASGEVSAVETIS
Numbers only, as −log10 of the molar value.

Provide pIC50 for all items below, preserving their order.
1. O=C1C(=C(O)c2ccc(Cl)c(Cl)c2)C(=O)N(c2ccc(Cl)cc2)N1c1ccc(Cl)cc1
2. O=C(Nc1ccc(C(F)(F)F)cc1)c1c(O)n(-c2cccc(Cl)c2)n(-c2cccc(Cl)c2)c1=O

result:
4.89
5.06

###

Exercise: for every item that follows, state its recorded IC50.
Target: UDP-N-acetylenolpyruvoylglucosamine reductase (Escherichia coli K-12, UniProt P08373)
Sequence (P08373 whole entry): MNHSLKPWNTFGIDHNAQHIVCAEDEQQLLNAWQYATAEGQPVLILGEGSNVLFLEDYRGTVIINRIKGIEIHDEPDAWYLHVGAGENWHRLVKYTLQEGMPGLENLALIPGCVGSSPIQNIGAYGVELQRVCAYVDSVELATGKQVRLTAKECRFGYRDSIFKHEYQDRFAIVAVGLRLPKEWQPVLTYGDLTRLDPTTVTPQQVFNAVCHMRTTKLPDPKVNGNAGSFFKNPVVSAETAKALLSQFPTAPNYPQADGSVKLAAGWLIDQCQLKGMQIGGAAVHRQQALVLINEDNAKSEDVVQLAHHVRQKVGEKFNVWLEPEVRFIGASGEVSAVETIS
One number for each entry, in µM.

> print(dat)
                               smiles.entry  experimental.result
1  COc1ccc(C(=O)c2c(O)n(-c3ccc(Cl)cc3)n(-c3ccc(Cl)cc3)c2=O)cc1                   10
2  O=C(Nc1ccc(Cl)cc1)c1c(O)n(-c2cccc(Cl)c2)n(-c2cccc(Cl)c2)c1=O                  8.6

Lab note: next molecule to report on.
query: Look up and report measured IC50 (UDP-N-acetylenolpyruvoylglucosamine reductase (Escherichia coli K-12, UniProt P08373)) for the following molecule: O=C(c1ccc(Cl)cc1)c1c(O)n(-c2ccc(Cl)cc2)n(-c2ccc(Cl)cc2)c1=O
result: 11
